Molecular target: T1, human CX3CR1 (human, UniProt P49238 1-355)
T1 construct: overexpressed on CHO, BA/F3 or HEK293T cells; also called huCX3CR1; hCX3CR1
T1 sequence: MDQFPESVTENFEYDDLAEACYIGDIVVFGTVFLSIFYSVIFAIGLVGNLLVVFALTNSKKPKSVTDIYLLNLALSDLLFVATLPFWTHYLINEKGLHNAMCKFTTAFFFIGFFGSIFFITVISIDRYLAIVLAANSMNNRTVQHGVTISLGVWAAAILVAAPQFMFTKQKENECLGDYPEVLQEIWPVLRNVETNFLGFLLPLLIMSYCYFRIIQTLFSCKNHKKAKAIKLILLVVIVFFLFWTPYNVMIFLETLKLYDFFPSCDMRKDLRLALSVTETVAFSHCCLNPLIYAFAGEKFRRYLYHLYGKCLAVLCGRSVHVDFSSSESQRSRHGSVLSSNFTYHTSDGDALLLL
Assay: A647-fractalkine competition FACS, HEK293-huCX3CR1
Overview of reported IC50 across a group of binders:
A number alone suffices; assume nM.

Some solved entries appear below for comparison.
GET /value?item= CX3CR1BII019 (VHH, expressed in E. coli as described for the monovalent VHHs) EMQLVESGGGSVQAGESLRLSCAASGSIFSSNAMAWYRQAPGKQRDLVALINSVGITKYADSVKGRFTISRDNAKNTVYLQMNSLKPEDTAVYYCTSDGRRGWDTRYWGQGTQVTVSSGGGGSGGGGSGGGGSGGGGSGGGGSGGGGSGGGGSEMQLVESGGGSVQAGESLRLSCAASGSIFSSNAMAWYRQAPGKQRDLVALINSVGITKYADSVKGRFTISRDNAKNTVYLQMNSLKPEDTAVYYCTSDGRRGWDTRYWGQGTQVTVSS &field=IC50 returns 0.29

GET /value?item= CX3CR1BII017 (VHH, expressed in E. coli as described for the monovalent VHHs) EVQLVESGGGSVQAGESLRLSCAASGSIFSSNAMAWYRQAPPGKQRDLVALINSVGITKYADSVKGRFTISSDNAKNTVYLEMNSLKPEDTAVYYCTSDGRRGWDTRYWGQGTQVTVSSGGGGSGGGGSGGGGSGGGGSGGGGSGGGGSGGGGSEVQLVESGGGSVQAGESLRLSCAASGSIFSSNAMAWYRQAPPGKQRDLVALINSVGITKYADSVKGRFTISSDNAKNTVYLEMNSLKPEDTAVYYCTSDGRRGWDTRYWGQGTQVTVSS &field=IC50 returns 0.31

Turning to the following binder.
GET /value?item= CX3CR1BII016 (VHH, expressed in E. coli as described for the monovalent VHHs) EVQLVESGGGSVQAGESLRLSCAASGSIFSSNAMAWYRQAPGKQRDLVAVINSVGITKYADSVKGRFTISGDNAKNTVYLQMNSLKPEDTAVYYCTSDARRGWDTRYWGQGTQVTVSSGGGGSGGGGSGGGGSGGGGSGGGGSGGGGSGGGGSEVQLVESGGGSVQAGESLRLSCAASGSIFSSNAMAWYRQAPGKQRDLVAVINSVGITKYADSVKGRFTISGDNAKNTVYLQMNSLKPEDTAVYYCTSDARRGWDTRYWGQGTQVTVSS &field=IC50 returns 0.19
